Data provenance is patent US20050209278A1.

Tested System: MMP-2 (Homo sapiens)
Construct: made in house; host or cells: MMP-2-transfected p2AHT2 cells
Sequence (P08253 110-660): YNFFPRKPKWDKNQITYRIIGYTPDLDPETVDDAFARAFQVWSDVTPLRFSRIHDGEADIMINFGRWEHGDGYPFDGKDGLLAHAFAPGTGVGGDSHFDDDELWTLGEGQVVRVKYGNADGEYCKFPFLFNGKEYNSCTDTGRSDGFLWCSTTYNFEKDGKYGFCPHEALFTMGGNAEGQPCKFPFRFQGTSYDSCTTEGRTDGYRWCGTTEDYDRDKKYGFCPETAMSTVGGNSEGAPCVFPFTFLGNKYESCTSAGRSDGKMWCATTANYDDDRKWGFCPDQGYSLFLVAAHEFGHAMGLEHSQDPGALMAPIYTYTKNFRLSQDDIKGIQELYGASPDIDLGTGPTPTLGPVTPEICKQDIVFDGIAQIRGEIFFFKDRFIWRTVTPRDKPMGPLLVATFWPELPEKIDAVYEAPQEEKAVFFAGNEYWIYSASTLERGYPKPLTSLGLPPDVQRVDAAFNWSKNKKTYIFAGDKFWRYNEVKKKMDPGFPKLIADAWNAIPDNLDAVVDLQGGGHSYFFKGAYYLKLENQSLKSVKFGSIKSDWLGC
Procedure Details: In vitro MMP inhibition, Ki determination (fluorogenic substrate II)
Format: biochemical
Run Parameters: value not in parenthesis; read-out: MMP-2 Ki
pKi: −log10 of the molar value.
Result Type: pKi

- O=C(NO)C1(S(=O)(=O)N2CCN(c3ccc(SC(F)(F)F)cc3)CC2)CCOCC1 [Example 170]: 9.62

A. O=C(NO)C1(S(=O)(=O)N2CCN(c3ccc(CCC(F)(F)F)cc3)CC2)CCOCC1 [Example 77]
B. CCCCOc1ccc(N2CCN(S(=O)(=O)C3(C(=O)NO)CCN(c4nccs4)CC3)CC2)cc1 [Example 157]
C. CCCCOc1ccc(N2CCN(S(=O)(=O)C3(C(=O)NO)CCN(Cc4ncc[nH]4)CC3)CC2)cc1 [Example 247]
## Task List items by pKi in falling order. Sort and list the labels as requested.
## Result A, C, B
(A: 9.42, C: 9.16, B: 8.83)

---

Tested System: MMP-9 (Homo sapiens, UniProt P14780)
Construct: made in house; host or cells: MMP-9-transfected HT1080 cells (spent media)
Sequence (P14780 107-707 limits assumed): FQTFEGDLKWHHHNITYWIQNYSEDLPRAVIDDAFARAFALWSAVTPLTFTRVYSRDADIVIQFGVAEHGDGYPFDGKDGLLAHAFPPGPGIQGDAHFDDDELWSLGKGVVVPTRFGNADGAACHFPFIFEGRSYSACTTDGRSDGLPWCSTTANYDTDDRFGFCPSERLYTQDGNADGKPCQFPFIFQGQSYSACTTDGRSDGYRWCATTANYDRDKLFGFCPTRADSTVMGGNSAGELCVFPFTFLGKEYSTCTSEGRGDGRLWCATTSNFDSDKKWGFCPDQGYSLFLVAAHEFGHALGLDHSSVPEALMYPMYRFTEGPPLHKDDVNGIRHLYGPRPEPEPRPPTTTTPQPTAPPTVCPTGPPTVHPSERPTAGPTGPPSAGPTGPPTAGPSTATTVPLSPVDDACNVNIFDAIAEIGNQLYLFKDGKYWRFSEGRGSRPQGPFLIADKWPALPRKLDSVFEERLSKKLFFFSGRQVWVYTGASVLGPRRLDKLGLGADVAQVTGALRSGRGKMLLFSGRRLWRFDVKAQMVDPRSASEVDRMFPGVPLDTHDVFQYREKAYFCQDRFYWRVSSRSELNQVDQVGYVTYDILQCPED
Procedure Details: In vitro MMP inhibition, IC50 determination (fluorogenic substrate I)
Format: biochemical
Run Parameters: value in parenthesis; read-out: MMP-9 (IC-50)
Protocol: Several hydroxamic acids and salts thereof were analyzed in in vitro assays to determine their ability to inhibit the MMP cleavage of peptide substrates. […] and IC50 constants were calculated from the assayed hydroxamic acid-MMP interactions. […] The assayed hydroxamic acid samples were incubated in MicrofluorTM White Plates (Dynatech, Chantilly, Va.) and analyzed on a Perkin Elmer […] plate reader (Norwalk, Conn.). […]
pIC50: −log10 of the molar value.
Result Type: pIC50

Study these solved cases before continuing.
• CCOCCCc1ccc(N2CCN(S(=O)(=O)C3(C(=O)NO)CCN(CCOC)CC3)CC2)cc1 [Example 179] = 8.47
• COCCN1CCC(C(=O)NO)(S(=O)(=O)N2CCN(c3ccc(CC4CCCCC4)cc3)CC2)CC1 [Example 181] = 7.34

1. CCC(CC)Cc1ccc(N2CCN(S(=O)(=O)C3(C(=O)NO)CCN(CCOC)CC3)CC2)cc1 [Example 188]
2. COCCN1CCC(C(=O)NO)(S(=O)(=O)N2CCN(c3ccc(C#N)cc3)CC2)CC1 [Example 186]
3. CCCOc1ccc(N2CCN(S(=O)(=O)C3(C(=O)NO)CCN(CCOC)CC3)CC2)cc1F [Example 185]
## Task Reorder: pIC50, max to min. Write the labels in rank order as requested.
## Result 3, 1, 2
(3: 8.92, 1: 7.47, 2: 7.25)

---

Tested System: MMP-9 (Homo sapiens, UniProt P14780)
Construct: made in house; host or cells: MMP-9-transfected HT1080 cells (spent media)
Procedure Details: In vitro MMP inhibition, IC50 determination (fluorogenic substrate I)
Format: biochemical
Run Parameters: value in parenthesis; read-out: MMP-9 (IC-50)
Experimental: Several hydroxamic acids and salts thereof were analyzed in in vitro assays to determine their ability to inhibit the MMP cleavage of peptide substrates. […] and IC50 constants were calculated from the assayed hydroxamic acid-MMP interactions. […] The assayed hydroxamic acid samples were incubated in MicrofluorTM White Plates (Dynatech, Chantilly, Va.) and analyzed on a Perkin Elmer […] plate reader (Norwalk, Conn.). […]
pIC50: −log10 of the molar value.
Result Type: pIC50

Study these solved cases before continuing.
• COCCN1CCC(C(=O)NO)(S(=O)(=O)N2CCN(c3ccc(Br)cc3)CC2)CC1 = 8.24
• COCCN1CCC(C(=O)NO)(S(=O)(=O)N2CCN(c3ccc(CC4CCC4)cc3)CC2)CC1 = 8.78
• COCCCc1ccc(N2CCN(S(=O)(=O)C3(C(=O)NO)CCN(CCOC)CC3)CC2)cc1 = 8.65

A. COCCN1CCC(C(=O)NO)(S(=O)(=O)N2CCN(c3ccc(CCC4CCCC4)cc3)CC2)CC1
B. CCCCCCc1ccc(N2CCN(S(=O)(=O)C3(C(=O)NO)CCN(CCOC)CC3)CC2)cc1
C. COCCN1CCC(C(=O)NO)(S(=O)(=O)N2CCN(c3ccc(OC(F)(F)F)cc3)CC2)CC1
D. CCc1cnc(N2CCN(S(=O)(=O)C3(C(=O)NO)CCN(CCOC)CC3)CC2)nc1
E. CCOc1ccc(N2CCN(S(=O)(=O)C3(C(=O)NO)CCN(CCOC)CC3)CC2)cc1F
## Task Would you mind ranking these compounds by ascending pIC50? Give your ranking as a list of the labels in the requested order.
## Result D, C, E, A, B

---

Tested System: MMP-9 (Homo sapiens)
Construct: made in house; host or cells: MMP-9-transfected HT1080 cells (spent media)
Procedure Details: In vitro MMP inhibition, Ki determination (fluorogenic substrate II)
Assay type: biochemical
Run Parameters: value outside parentheses
Procedure: Several hydroxamic acids and salts thereof were analyzed in in vitro assays to determine their ability to inhibit the MMP cleavage of peptide substrates. […] and IC50 constants were calculated from the assayed hydroxamic acid-MMP interactions. […] The assays from which the Ki determinations were made were performed as follows. […] In the absence of MMP inhibitory activity, substrate II was cleaved at the Gly-Leu bond resulting in an increase of relative fluorescence. […]
Result Type: Ki (nM)

* O=C(NO)C1(S(=O)(=O)N2CCC(c3ccc(-c4ccc(F)cc4F)cn3)CC2)CCOCC1 | 11.3
* O=C(NO)C1(S(=O)(=O)N2CCC(c3ccc(-c4ccccc4)cn3)CC2)CCOCC1 | 2.33
* CCCCc1cnc(N2CCN(S(=O)(=O)C3(C(=O)NO)CCN(CCOC)CC3)CC2)nc1 | 1.19

A. O=C(NO)C1(S(=O)(=O)N2CCC(c3ccc(Br)cn3)CC2)CCOCC1
B. CCCCOc1ccc(N2CCN(S(=O)(=O)C3(C(=O)NO)CCN(C(=O)CCCC)CC3)CC2)cc1
C. N#Cc1cccc(-c2cnc(N3CCN(S(=O)(=O)C4(C(=O)NO)CCOCC4)CC3)s2)c1
D. O=C(NO)C1(S(=O)(=O)N2CCN(c3ccc(CCC(F)(F)C(F)(F)F)cc3)CC2)CCN(C2CC2)CC1
E. N#Cc1ccc(-c2cnc(N3CCN(S(=O)(=O)C4(C(=O)NO)CCOCC4)CC3)s2)cc1
## Task Write the entries in order, lowest recorded Ki first. Order the labels as requested and list them.
## Result D, E, A, B, C

---

Tested System: MMP-13 (Homo sapiens, UniProt P45452)
Construct: made in house; host or cells: baculovirus / insect cells
Procedure Details: In vitro MMP inhibition, Ki determination (fluorogenic substrate II)
Assay type: biochemical
Run Parameters: value not in parenthesis; read-out: MMP-13 Ki
Result Type: Ki (nM)

• O=C1c2ccccc2C(=O)N1CCCCc1ccc(N2CCN(S(=O)(=O)C3(C(=O)NO)CCOCC3)CC2)nc1 [Example 132] = 0.395

I. CCCCOc1ccc(N2CCN(S(=O)(=O)C3(C(=O)NO)CCN(C(=O)OCC(C)(C)C)CC3)CC2)cc1 [Example 97]
II. CCCCc1ccc(N2CCN(S(=O)(=O)C3(C(=O)NO)CCN(CCOC)CC3)CC2)cc1F [Example 173]
III. COCCN1CCC(C(=O)NO)(S(=O)(=O)N2CCN(c3ccc(C(C)=O)cc3)CC2)CC1 [Example 174]
IV. CCCCCc1ccc(N2CCN(S(=O)(=O)C3(C(=O)NO)CCN(C(=O)CC)CC3)CC2)cc1 [Example 206]
## Task // ascending sort on recorded Ki // format: requested-order list of labels
## Result IV, II, III, I

---

Tested System: MMP-1 (Homo sapiens)
Construct: made in house; host or cells: MMP-1-transfected HT-1080 cells (spent media)
Sequence (P03956 100-469): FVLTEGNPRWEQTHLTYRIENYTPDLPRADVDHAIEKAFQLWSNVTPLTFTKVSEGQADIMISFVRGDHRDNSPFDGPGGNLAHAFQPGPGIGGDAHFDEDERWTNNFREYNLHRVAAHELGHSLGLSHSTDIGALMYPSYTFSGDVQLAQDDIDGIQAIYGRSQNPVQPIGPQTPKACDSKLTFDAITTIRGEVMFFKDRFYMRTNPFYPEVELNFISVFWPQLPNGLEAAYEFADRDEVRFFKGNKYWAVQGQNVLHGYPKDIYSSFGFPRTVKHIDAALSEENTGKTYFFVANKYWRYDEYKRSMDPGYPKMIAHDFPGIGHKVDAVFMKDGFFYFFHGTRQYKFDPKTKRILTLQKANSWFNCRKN
Procedure Details: In vitro MMP inhibition, IC50 determination (fluorogenic substrate I)
Assay type: biochemical
Run Parameters: value in parentheses; read-out: MMP-1 (IC-50)
Description: Several hydroxamic acids and salts thereof were analyzed in in vitro assays to determine their ability to inhibit the MMP cleavage of peptide substrates. […] and IC50 constants were calculated from the assayed hydroxamic acid-MMP interactions. […] The assayed hydroxamic acid samples were incubated in MicrofluorTM White Plates (Dynatech, Chantilly, Va.) and analyzed on a Perkin Elmer […] plate reader (Norwalk, Conn.). […]
Result Type: IC50

- CCCCOc1ccc(N2CCN(S(=O)(=O)C3(C(=O)NO)CCN(C4CC4)CC3)CC2)cc1 [Example 301]: > 10 µM
- CCCCOc1ccc(N2CCN(S(=O)(=O)C3(C(=O)NO)CCN(C(=O)CCC)CC3)CC2)cc1 [Example 290]: > 10 µM

## Task Using the record for CCCCOc1ccc(N2CCN(S(=O)(=O)C3(C(=O)NO)CCN(CC4CC4)CC3)CC2)cc1 [Example 298] , state its measured IC50.
## Result > 10 µM
